Test system: NCI-H2373 (Mesothelioma)
TEST METHOD NOTES: combination Emax (second highest fraction inhibited in the dose matrix, 72 h); higher = more inhibition; extreme values may be limits of the assay
QUANTITY MEASURED: combination Emax
Answers are plain numbers.

# COMPOUND, combination Emax
measured = [
    ("COc1cccc(OCCCN)c1-c1cc(Nc2cnc(C#N)cn2)n[nH]1 [Prexasertib] + CCc1c2c(nc3ccc(O)cc13)-c1cc3c(c(=O)n1C2)COC(=O)[C@]3(O)CC [SN-38] (first compound max 1 µM, 7x7, partner max 0.3 µM)", 0.642),
]

Moving on to the next compound.
Provide value of combination Emax for this record tested with NCI-H2373 (Mesothelioma): Cn1cnc2c(F)c(Nc3ccc(Br)cc3Cl)c(C(=O)NOCCO)cc21 [Selumetinib] + C[C@@H]1COCCN1C2=NC(=NC(=C2)C3(CC3)[S@](=N)(=O)C)C4=C5C=CNC5=NC=C4 [AZD6738] (first compound max 10 µM, 7x7, partner max 10 µM)
0.463

====

Test system: TUR (Acute Myeloid Leukemia)
TEST METHOD NOTES: Bliss excess, mean over the matrix (fraction); higher = more synergy
QUANTITY MEASURED: Bliss excess

# MOLECULE, Bliss excess
records = [
    ("COc1cc2c(cc1OCCCCCOc1cc3c(cc1OC)C(=O)N1C=C(C)C[C@H]1C=N3)N=C[C@@H]1CC(C)=CN1C2=O [SG3199] + O=C(c1cc(Cc2n[nH]c(=O)c3ccccc23)ccc1F)N1CCN(C(=O)C2CC2)CC1 [Olaparib] (first compound max 0.001 µM, 7x7, partner max 10 µM)", 0.0081),
    ("Cc1c2c(nn1C)CSCc1cc(n(C)n1)CSc1cc(c3ccccc3c1)OCCCc1c(C(=O)O)n(C)c3c-2c(Cl)ccc13 [AZD5991] + C[C@@H]1COCCN1C2=NC(=NC(=C2)C3(CC3)[S@](=N)(=O)C)C4=C5C=CNC5=NC=C4 [AZD6738] (first compound max 1 µM, 7x7, partner max 10 µM)", 0.096),
]

Hi, could you look up Bliss excess for each item in my list?
1. Cn1cnc2c(F)c(Nc3ccc(Br)cc3Cl)c(C(=O)NOCCO)cc21 [Selumetinib] + CC(C)n1c(=O)n(C)c2cnc3cc(F)c(-c4ccc(OCCCN5CCCCC5)nc4)cc3c21 [AZD1390] (first compound max 10 µM, 7x7, partner max 0.3 µM)
2. Cc1c2c(nn1C)CSCc1cc(n(C)n1)CSc1cc(c3ccccc3c1)OCCCc1c(C(=O)O)n(C)c3c-2c(Cl)ccc13 [AZD5991] + C=CCn1c(=O)c2cnc(Nc3ccc(N4CCN(C)CC4)cc3)nc2n1-c1cccc(C(C)(C)O)n1 [AZD1775] (first compound max 1 µM, partner max 1 µM)
3. Cn1cnc2c(F)c(Nc3ccc(Br)cc3Cl)c(C(=O)NOCCO)cc21 [Selumetinib] + C=CCn1c(=O)c2cnc(Nc3ccc(N4CCN(C)CC4)cc3)nc2n1-c1cccc(C(C)(C)O)n1 [AZD1775] (first compound max 10 µM, partner max 1 µM)

1. -0.0122
2. 0.0189
3. -0.0146

Hi, could you look up Bliss excess for each item in my list?
1. CCN(CCO)CCCOc1ccc2c(Nc3cc(CC(=O)Nc4cccc(F)c4)[nH]n3)ncnc2c1 [AZD2811] + O=C(c1cc(Cc2n[nH]c(=O)c3ccccc23)ccc1F)N1CCN(C(=O)C2CC2)CC1 [Olaparib] (first compound max 1 µM, 7x7, partner max 10 µM)
2. COc1cccc(OCCCN)c1-c1cc(Nc2cnc(C#N)cn2)n[nH]1 [Prexasertib] + C[C@@H]1COCCN1C2=NC(=NC(=C2)C3(CC3)[S@](=N)(=O)C)C4=C5C=CNC5=NC=C4 [AZD6738] (first compound max 1 µM, 7x7, partner max 10 µM)
3. Cc1nc(Nc2ncc(C(=O)Nc3c(C)cccc3Cl)s2)cc(N2CCN(CCO)CC2)n1 [Dasatinib] + CC(=O)Nc1cccc(-n2c(=O)n(C3CC3)c(=O)c3c(Nc4ccc(I)cc4F)n(C)c(=O)c(C)c32)c1 [Trametinib] (first compound max 2 µM, 7x7, partner max 1 µM)
4. C[C@@H](c1ccc2nccn2c1)n1nnc2ncc(-c3cnn(C)c3)nc21 [Savolitinib] + Cc1c2c(nn1C)CSCc1cc(n(C)n1)CSc1cc(c3ccccc3c1)OCCCc1c(C(=O)O)n(C)c3c-2c(Cl)ccc13 [AZD5991] (first compound max 1 µM, 7x7, partner max 1 µM)

[0.0637, 0.0298, -0.0919, 0.0026]

====

Provide the recorded Bliss excess for the entries that follow.
Test system: P30-OHK (B-Lymphoblastic Leukemia)
TEST METHOD NOTES: Bliss excess, mean over the matrix (fraction); higher = more synergy
Give bare numbers.

# MOLECULE, QUANTITY MEASURED, RECORDED NUMBER
records = [
    ("CC1(C)CCC(CN2CCN(c3ccc(C(=O)NS(=O)(=O)c4ccc(NCC5CCOCC5)c([N+](=O)[O-])c4)c(Oc4cnc5[nH]ccc5c4)c3)CC2)=C(c2ccc(Cl)cc2)C1 [Venetoclax] + C[C@@H]1COCCN1C2=NC(=NC(=C2)C3(CC3)[S@](=N)(=O)C)C4=C5C=CNC5=NC=C4 [AZD6738] (first compound max 1 µM, 7x7, partner max 10 µM)", "Bliss excess", 0.154),
]

Moving on to the next molecule.
Which measured Bliss excess value corresponds to COc1cccc(OCCCN)c1-c1cc(Nc2cnc(C#N)cn2)n[nH]1 [Prexasertib] + O=C(c1cc(Cc2n[nH]c(=O)c3ccccc23)ccc1F)N1CCN(C(=O)C2CC2)CC1 [Olaparib] (first compound max 1 µM, 7x7, partner max 10 µM) ?
-0.0074

====

Tested on: KALS-1 (Glioblastoma)
TEST METHOD NOTES: combination Emax (second highest fraction inhibited in the dose matrix, 72 h); higher = more inhibition; extreme values may be limits of the assay
Provide the recorded combination Emax for the entries that follow.
Answers are plain numbers.

Hi, could you look up combination Emax for each item in my list?
1. CCN(CCO)CCCOc1ccc2c(Nc3cc(CC(=O)Nc4cccc(F)c4)[nH]n3)ncnc2c1 [AZD2811] + O=C(c1cc(Cc2n[nH]c(=O)c3ccccc23)ccc1F)N1CCN(C(=O)C2CC2)CC1 [Olaparib] (first compound max 1 µM, 7x7, partner max 10 µM)
2. COc1nnc2ccc(N3CCC(c4ccc(OCCN5CCN(C)C(=O)[C@H]5C)cc4)CC3)nn12 [AZD5153] + CC1(C)CCC(CN2CCN(c3ccc(C(=O)NS(=O)(=O)c4ccc(NCC5CCOCC5)c([N+](=O)[O-])c4)c(Oc4cnc5[nH]ccc5c4)c3)CC2)=C(c2ccc(Cl)cc2)C1 [Venetoclax] (first compound max 1 µM, 7x7, partner max 1 µM)

0.296
0.616

Provide value of combination Emax for this record tested with KALS-1 (Glioblastoma): CC1(C)CCC(CN2CCN(c3ccc(C(=O)NS(=O)(=O)c4ccc(NCC5CCOCC5)c([N+](=O)[O-])c4)c(Oc4cnc5[nH]ccc5c4)c3)CC2)=C(c2ccc(Cl)cc2)C1 [Venetoclax] + C[C@@H](Nc1cc(F)cc(F)c1)c1cc(C(=O)N(C)C)cc2c(=O)cc(N3CCOCC3)oc12 [AZD8186] (first compound max 1 µM, 7x7, partner max 3 µM)
0.741

====

System: NB1 (Neuroblastoma)
TEST METHOD NOTES: Bliss excess, mean over the matrix (fraction); higher = more synergy
QUANTITY MEASURED: Bliss excess
Answers are plain numbers.

# MOLECULE, Bliss excess
records = [
    ("COc1cc2c(cc1OCCCCCOc1cc3c(cc1OC)C(=O)N1C=C(C)C[C@H]1C=N3)N=C[C@@H]1CC(C)=CN1C2=O [SG3199] + O=C(c1cc(Cc2n[nH]c(=O)c3ccccc23)ccc1F)N1CCN(C(=O)C2CC2)CC1 [Olaparib] (first compound max 0.001 µM, 7x7, partner max 10 µM)", -0.0418),
]

Moving on to the next molecule.
Which measured Bliss excess value corresponds to NC1(C(=O)N[C@@H](CCO)c2ccc(Cl)cc2)CCN(c2ncnc3[nH]ccc23)CC1 [Capivasertib] + CC(C)n1c(=O)n(C)c2cnc3cc(F)c(-c4ccc(OCCCN5CCCCC5)nc4)cc3c21 [AZD1390] (first compound max 10 µM, 7x7, partner max 0.3 µM) ?
-0.0688

====

Provide the recorded combination Emax for the entries that follow.
Tested on: SNU-407 (Colorectal Carcinoma)
TEST METHOD NOTES: combination Emax (second highest fraction inhibited in the dose matrix, 72 h); higher = more inhibition; extreme values may be limits of the assay
One number for each entry.

# COMPOUND, combination Emax
measured = [
    ("CN(CCO)CC[C@H](CSc1ccccc1)Nc1ccc(S(=O)(=O)NC(=O)c2ccc(N3CCC([C@@H](O)c4ccccc4-c4ccc(Cl)cc4)CC3)cc2)cc1S(=O)(=O)C(F)(F)F [AZD4320] + C[C@@H](Nc1cc(F)cc(F)c1)c1cc(C(=O)N(C)C)cc2c(=O)cc(N3CCOCC3)oc12 [AZD8186] (first compound max 1 µM, 7x7, partner max 3 µM)", 0.311),
]

Hi, could you look up combination Emax for each item in my list?
1. CC1(C)CCC(CN2CCN(c3ccc(C(=O)NS(=O)(=O)c4ccc(NCC5CCOCC5)c([N+](=O)[O-])c4)c(Oc4cnc5[nH]ccc5c4)c3)CC2)=C(c2ccc(Cl)cc2)C1 [Venetoclax] + C=CCn1c(=O)c2cnc(Nc3ccc(N4CCN(C)CC4)cc3)nc2n1-c1cccc(C(C)(C)O)n1 [AZD1775] (first compound max 1 µM, partner max 1 µM)
2. CN(CCO)CC[C@H](CSc1ccccc1)Nc1ccc(S(=O)(=O)NC(=O)c2ccc(N3CCC([C@@H](O)c4ccccc4-c4ccc(Cl)cc4)CC3)cc2)cc1S(=O)(=O)C(F)(F)F [AZD4320] + Cn1cnc2c(F)c(Nc3ccc(Br)cc3Cl)c(C(=O)NOCCO)cc21 [Selumetinib] (first compound max 1 µM, 7x7, partner max 3 µM)

1. 0.558
2. 0.57
